The entries below are paired with their reported inhibition at 1 µM.
molecular target: DDR2 tyrosine kinase (Homo sapiens (Human)); experiment: in vitro DDR2 tyrosine kinase inhibition (GST-fused kinase domain); type: biochemical; conditions: 1 uM compound; read-out: % inhibition against DDR2
Sequence (Q16832 563-849): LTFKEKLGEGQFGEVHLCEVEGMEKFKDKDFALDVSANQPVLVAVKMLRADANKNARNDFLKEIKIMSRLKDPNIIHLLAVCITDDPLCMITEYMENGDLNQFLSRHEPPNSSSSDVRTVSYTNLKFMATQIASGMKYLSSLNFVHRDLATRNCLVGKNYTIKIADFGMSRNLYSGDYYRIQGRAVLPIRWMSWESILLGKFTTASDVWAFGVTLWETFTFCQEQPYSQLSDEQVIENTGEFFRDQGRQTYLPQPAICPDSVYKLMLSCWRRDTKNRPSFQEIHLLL

Solved entries (count: 4):
Oc1cccc(Nc2ncnc3cc(-c4ccco4)sc23)c1    > 70%
COc1cccc(Nc2ncnc3cc(-c4ccoc4)sc23)c1    > 70%
CO[C@@H]1C[C@@H](CO)N(C(=O)c2cc3nccc(Nc4ccc5c(c4)cc(C)n5C(=O)NC4CC4)c3s2)C1 [Control compound 3, reference compound]    < 20%
COC(=O)C1CCCN1Cc1ccc(-c2cc3ncnc(Nc4cccc(O)c4)c3s2)cc1 (stereo not shown)    > 80%

**Query** Specify measured inhibition at 1 µM for Oc1cccc(Nc2ncnc3cc(-c4cc(CN5CCCCC5)co4)sc23)c1 .
**Result** > 70%

**Query** Specify measured inhibition at 1 µM for COc1cccc(Nc2ncnc3cc(-c4ccco4)sc23)c1 .
**Result** > 60%

**Query** Specify measured inhibition at 1 µM for CC(C)CNCc1ccc(-c2cc3ncnc(Nc4cccc(O)c4)c3s2)cc1 .
**Result** > 80%

====

target: DDR1 tyrosine kinase (Homo sapiens (Human), UniProt Q08345); assay: in vitro DDR1 tyrosine kinase inhibition (GST-fused kinase domain); type: biochemical; conditions: 1 uM compound; read-out: % inhibition against DDR1
Sequence (Q08345 610-905): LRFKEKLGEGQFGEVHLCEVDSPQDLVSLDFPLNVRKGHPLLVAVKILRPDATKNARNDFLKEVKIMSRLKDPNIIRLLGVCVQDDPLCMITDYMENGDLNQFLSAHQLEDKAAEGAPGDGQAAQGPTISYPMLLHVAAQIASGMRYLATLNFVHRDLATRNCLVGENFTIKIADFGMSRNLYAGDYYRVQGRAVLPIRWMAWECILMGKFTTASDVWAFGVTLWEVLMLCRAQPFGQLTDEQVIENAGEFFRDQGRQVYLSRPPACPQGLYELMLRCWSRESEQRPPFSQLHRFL
The entries below are paired with their reported inhibition at 1 µM.

Solved entries (count: 2):
Oc1cccc(Nc2ncnc3cc(-c4ccc(CN5CCCC5)o4)sc23)c1    > 80%
CN1CCN(C(=O)Cc2ccc(-c3cc4ncnc(Nc5cccc(O)c5)c4s3)cc2)CC1    > 70%

**Query** Specify measured inhibition at 1 µM for Oc1cccc(Nc2ncnc3cc(-c4ccc(OCCN5CCOCC5)cc4)sc23)c1 .
**Result** > 60%

**Query** Specify measured inhibition at 1 µM for COc1cccc(Nc2ncnc3cc(-c4ccc(OCCc5ccccn5)cc4)sc23)c1 .
**Result** > 10%

**Query** Specify measured inhibition at 1 µM for Cl.Oc1cccc(Nc2ncnc3cc(-c4cccc(CN5CCCC5)c4)sc23)c1 .
**Result** > 80%

====

The entries below are paired with their reported inhibition at 1 µM.
biological target: c-Src tyrosine kinase (Homo sapiens (Human), UniProt P12931); experiment: in vitro c-Src tyrosine kinase inhibition (32P-ATP, poly(D4Y)n substrate); format: biochemical; details: 1 uM compound; read-out: % inhibition against c-Src
Sequence (P12931 whole entry, looked up): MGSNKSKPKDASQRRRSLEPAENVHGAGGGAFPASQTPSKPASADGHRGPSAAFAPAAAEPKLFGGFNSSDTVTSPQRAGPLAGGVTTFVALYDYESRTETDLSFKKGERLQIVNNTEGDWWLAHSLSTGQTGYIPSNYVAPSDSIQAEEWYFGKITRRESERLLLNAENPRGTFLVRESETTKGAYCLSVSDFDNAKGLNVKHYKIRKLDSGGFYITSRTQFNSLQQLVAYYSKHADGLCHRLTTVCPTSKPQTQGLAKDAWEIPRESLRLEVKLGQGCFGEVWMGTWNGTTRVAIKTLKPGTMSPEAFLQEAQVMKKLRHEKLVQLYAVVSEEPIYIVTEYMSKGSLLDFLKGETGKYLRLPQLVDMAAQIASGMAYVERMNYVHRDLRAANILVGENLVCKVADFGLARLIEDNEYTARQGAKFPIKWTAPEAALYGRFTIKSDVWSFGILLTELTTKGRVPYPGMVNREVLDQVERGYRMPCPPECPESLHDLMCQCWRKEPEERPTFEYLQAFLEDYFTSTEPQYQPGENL

Solved entries (count: 4):
Oc1cccc(Nc2ccnc3cc(-c4ccc(CN5CCCC5)cc4)sc23)c1 [LCB 03-0080]    > 60%
CCN(CC)Cc1cccc(-c2cc3ncnc(Nc4cccc(O)c4)c3s2)c1.Cl [LCB 03-0063]    > 80%
Cl.Oc1cccc(Nc2ncnc3cc(-c4ccc(CN5CCCC5)cc4)sc23)c1 [LCB 03-0034]    > 80%
CCNCc1ccc(-c2cc3nccc(Nc4cccc(O)c4)c3s2)cc1 [LCB 03-0099]    > 30%

**Query** Specify measured inhibition at 1 µM for Oc1cccc(Nc2ncnc3cc(-c4ccc(CN5CCNCC5)s4)sc23)c1 [LCB 03-0094] .
**Result** > 60%

**Query** Specify measured inhibition at 1 µM for CN1CCN(c2nc3ncnc(Nc4cccc(O)c4)c3s2)CC1 [LCB 03-0100] .
**Result** > 30%

====

system: TNF-α synthesis in J744A.1 macrophages; experiment: inhibition of TNF-α synthesis in LPS-activated macrophages (ELISA); type: cell-based; conditions: Macrophage; 10 μM compound, 100 ng/ml LPS, 6 hours; read-out: Inhibition (%) of TNF-α synthesis
Measured metric: inhibition at 10 µM (%)
The reply should contain only the number, in %.

CC(C)CNCc1cccc(-c2cc3ncnc(Nc4cccc(O)c4)c3s2)c1.Cl [LCB 03-0067]    83

**Query** Specify measured inhibition at 10 µM for C[C@@H]1CCC[C@H](C)N1Cc1ccc(-c2cc3ncnc(Nc4cccc(O)c4)c3s2)cc1.Cl [LCB 03-0059] .
**Result** 74

**Query** Specify measured inhibition at 10 µM for Cl.Oc1cccc(Nc2ncnc3cc(-c4ccc(CN5CCCC5)cc4)sc23)c1 [LCB 03-0034] .
**Result** 75

**Query** Specify measured inhibition at 10 µM for Oc1cccc(Nc2ncnc3cc(-c4ccc(N5CCOCC5)cc4)sc23)c1 [LCB 03-0082] .
**Result** 77

**Query** Specify measured inhibition at 10 µM for CC(C)CNCc1ccc(-c2cc3ncnc(Nc4cccc(O)c4)c3s2)cc1 [LCB 03-0041] .
**Result** 87

**Query** Specify measured inhibition at 10 µM for Cl.Oc1cccc(Nc2ncnc3cc(-c4cccc(CN5CCOCC5)c4)sc23)c1 [LCB 03-0066] .
**Result** 93

**Query** Specify measured inhibition at 10 µM for CCN(CC)C(=O)c1cccc(-c2cc3ncnc(Nc4cccc(O)c4)c3s2)c1 [LCB 03-0054] .
**Result** 77

**Query** Specify measured inhibition at 10 µM for Oc1cccc(Nc2ncnc3cc(-c4ccco4)sc23)c1 [LCB 03-0038] .
**Result** 85

**Query** Specify measured inhibition at 10 µM for Oc1cccc(Nc2ncnc3cc(-c4ccc(CNC5CC5)cc4)sc23)c1 [LCB 03-0040] .
**Result** 84

**Query** Specify measured inhibition at 10 µM for Cl.Oc1cccc(Nc2ncnc3cc(-c4cccc(CCN5CCCC5)c4)sc23)c1 [LCB 03-0076] .
**Result** 90

**Query** Specify measured inhibition at 10 µM for Oc1cccc(Nc2ncnc3cc(-c4cccc(CCN5CCNCC5)c4)sc23)c1 [LCB 03-0079] .
**Result** 67

**Query** Specify measured inhibition at 10 µM for Cl.Oc1cccc(Nc2ncnc3cc(-c4cccc(CN5CCNCC5)c4)sc23)c1 [LCB 03-0064] .
**Result** 73

**Query** Specify measured inhibition at 10 µM for Cl.Oc1cccc(Nc2ncnc3cc(-c4cccc(CN5CCCCC5)c4)sc23)c1 [LCB 03-0060] .
**Result** 78

**Query** Specify measured inhibition at 10 µM for CCNCc1cccc(-c2cc3ncnc(Nc4cccc(O)c4)c3s2)c1.Cl [LCB 03-0065] .
**Result** 79

====

target: Lyn tyrosine kinase (Homo sapiens (Human), UniProt P07948); test: in vitro Lyn tyrosine kinase inhibition; format: biochemical; details: 1 uM compound; read-out: % inhibition against Lyn
Sequence (P07948 whole entry): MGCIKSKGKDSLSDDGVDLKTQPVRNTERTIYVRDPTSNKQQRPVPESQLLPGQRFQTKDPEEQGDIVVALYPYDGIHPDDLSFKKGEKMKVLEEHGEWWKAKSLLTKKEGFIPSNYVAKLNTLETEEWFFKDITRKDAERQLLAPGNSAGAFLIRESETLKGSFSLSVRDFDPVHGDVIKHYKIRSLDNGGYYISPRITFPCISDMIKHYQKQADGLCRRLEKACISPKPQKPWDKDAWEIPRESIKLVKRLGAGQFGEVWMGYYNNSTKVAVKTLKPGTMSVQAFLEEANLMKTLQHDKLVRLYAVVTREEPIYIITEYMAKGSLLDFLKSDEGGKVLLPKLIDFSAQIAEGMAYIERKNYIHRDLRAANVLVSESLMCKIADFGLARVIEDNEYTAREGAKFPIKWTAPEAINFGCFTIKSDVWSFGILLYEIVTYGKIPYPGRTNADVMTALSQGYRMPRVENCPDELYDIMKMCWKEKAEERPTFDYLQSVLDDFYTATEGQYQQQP
The entries below are paired with their reported inhibition at 1 µM.

Solved entries (count: 8):
Oc1cccc(Nc2ccnc3cc(-c4ccc(CN5CCOCC5)cc4)sc23)c1 [LCB 03-0083]    > 60%
Oc1cccc(Nc2ncnc3cc(Br)sc23)c1 [LCB 03-0015]    > 60%
COc1cccc(Nc2ncnc3cc(-c4ccc(OCCc5ccccn5)cc4)sc23)c1 [LCB 03-0022]    > 60%
Oc1cccc(Nc2ncnc3cc(-c4cccc(CCN5CCNCC5)c4)sc23)c1 [LCB 03-0079]    > 80%
Oc1cccc(Nc2ccnc3cc(-c4ccc(CN5CCNCC5)cc4)sc23)c1 [LCB 03-0098]    > 30%
CN1CCN(C(=O)c2ccc(-c3cc4ncnc(Nc5cccc(O)c5)c4s3)cc2)CC1 [LCB 03-0052]    > 60%
Oc1cccc(Nc2ncnc3cc(-c4ccc(CCN5CCCC5)cc4)sc23)c1 [LCB 03-0043]    > 30%
Oc1cccc(Nc2ncnc3cc(-c4cc(CN5CCNCC5)cs4)sc23)c1 [LCB 03-0105]    > 50%

**Query** Specify measured inhibition at 1 µM for COC(=O)C1CCCN1Cc1ccc(-c2cc3ncnc(Nc4cccc(O)c4)c3s2)cc1 (stereo not drawn) [LCB 03-0056] .
**Result** > 50%

**Query** Specify measured inhibition at 1 µM for CC1CCN(Cc2ccc(-c3cc4ncnc(Nc5cccc(O)c5)c4s3)cc2)CC1 [LCB 03-0058] .
**Result** > 40%

**Query** Specify measured inhibition at 1 µM for CCN(CC)C(=O)Cc1ccc(-c2cc3ncnc(Nc4cccc(O)c4)c3s2)cc1 [LCB 03-0050] .
**Result** > 40%

**Query** Specify measured inhibition at 1 µM for COc1cccc(Nc2ncnc3cc(-c4cccs4)sc23)c1 [LCB 03-0027] .
**Result** > 40%

**Query** Specify measured inhibition at 1 µM for Cl.Oc1cccc(Nc2ncnc3cc(-c4cccc(CN5CCOCC5)c4)sc23)c1 [LCB 03-0066] .
**Result** > 80%

**Query** Specify measured inhibition at 1 µM for Cl.Oc1cccc(Nc2ncnc3cc(-c4ccc(CN5CCCC5)cc4)sc23)c1 [LCB 03-0034] .
**Result** > 80%

**Query** Specify measured inhibition at 1 µM for Oc1cccc(Nc2ncnc3cc(-c4ccc(CCN5CCCCC5)cc4)sc23)c1 [LCB 03-0044] .
**Result** > 30%

**Query** Specify measured inhibition at 1 µM for Oc1cccc(Nc2ncnc3cc(-c4ccc(CN5CCCCC5)s4)sc23)c1 [LCB 03-0093] .
**Result** > 60%

**Query** Specify measured inhibition at 1 µM for CN1CCN(Cc2cccc(-c3cc4ncnc(Nc5cccc(O)c5)c4s3)c2)CC1.Cl [LCB 03-0061] .
**Result** > 80%

**Query** Specify measured inhibition at 1 µM for CCOCc1ccc(-c2cc3ncnc(Nc4cccc(O)c4)c3s2)cc1 [LCB 03-0073] .
**Result** > 30%
